B1: High mobility group protein B1, P63159 (parent)
chain: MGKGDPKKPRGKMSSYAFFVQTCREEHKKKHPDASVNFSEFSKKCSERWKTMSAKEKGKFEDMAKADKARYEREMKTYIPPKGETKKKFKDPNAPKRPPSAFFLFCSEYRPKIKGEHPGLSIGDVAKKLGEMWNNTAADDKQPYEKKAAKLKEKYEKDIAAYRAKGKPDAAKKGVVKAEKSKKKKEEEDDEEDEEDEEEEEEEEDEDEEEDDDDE

- Variants of: B1
- Experimental Conditions: Rattus norvegicus; pH 7; 20 °C; Thermal; CD; HEPES 10 mM; NiSO4 1 mM; structure 1HME; whole UniProt chain shown
Readout Name: ddG of mutation (higher = less stable) (kcal/mol)
Answer format: numeric, kcal/mol implied, no suffix.

Task: Request the reported ddG of mutation (higher = less stable) associated with `I122H`
Output: 0

Task: Request the reported ddG of mutation (higher = less stable) associated with `D139H`
Output: -0.97

Task: Request the reported ddG of mutation (higher = less stable) associated with `D140H`
Output: -0.95

Task: Request the reported ddG of mutation (higher = less stable) associated with `G123H`
Output: -0.47

Task: Request the reported ddG of mutation (higher = less stable) associated with `S121H`
Output: 1.5
